# testedOn: aryl hydrocarbon receptor (AHR) (Homo sapiens)
# Sequence (P35869 11-848): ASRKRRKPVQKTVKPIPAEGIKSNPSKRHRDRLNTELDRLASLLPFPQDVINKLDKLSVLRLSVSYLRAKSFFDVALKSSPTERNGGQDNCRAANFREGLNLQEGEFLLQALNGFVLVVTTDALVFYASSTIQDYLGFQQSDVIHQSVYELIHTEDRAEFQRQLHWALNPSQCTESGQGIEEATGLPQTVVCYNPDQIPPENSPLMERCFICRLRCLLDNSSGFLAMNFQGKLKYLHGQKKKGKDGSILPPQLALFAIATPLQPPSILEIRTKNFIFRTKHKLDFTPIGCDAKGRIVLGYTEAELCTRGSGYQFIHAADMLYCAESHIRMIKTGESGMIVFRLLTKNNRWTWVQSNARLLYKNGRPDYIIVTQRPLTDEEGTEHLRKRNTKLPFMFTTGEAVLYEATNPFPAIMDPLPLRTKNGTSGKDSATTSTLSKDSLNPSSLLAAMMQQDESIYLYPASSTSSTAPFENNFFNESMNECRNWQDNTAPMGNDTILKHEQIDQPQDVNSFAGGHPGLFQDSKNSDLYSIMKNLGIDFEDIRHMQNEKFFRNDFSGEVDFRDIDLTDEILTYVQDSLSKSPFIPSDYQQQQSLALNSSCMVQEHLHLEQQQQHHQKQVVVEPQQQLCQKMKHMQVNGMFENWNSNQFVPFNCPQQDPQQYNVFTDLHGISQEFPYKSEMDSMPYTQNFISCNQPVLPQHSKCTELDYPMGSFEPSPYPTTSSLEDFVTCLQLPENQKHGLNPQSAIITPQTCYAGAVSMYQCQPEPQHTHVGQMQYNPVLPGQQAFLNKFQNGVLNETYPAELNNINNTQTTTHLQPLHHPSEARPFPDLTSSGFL
# experimentSummary: DRE-Luciferase reporter high-throughput screen (AHR antagonist, VAF347-activated)
pIC50: −log10 of the molar value.
Overview of recorded pIC50 for various compounds

Record excerpt, results attached:
Request the reported pIC50 associated with N#Cc1ccc(N2CCN(C(=O)Nc3cccc(C(F)(F)F)c3)CC2)nc1 [80A] 5.70 to 6.00

Request the reported pIC50 associated with CC(C)NC(=O)c1ccc2c(-c3nccs3)noc2c1 [65A] 5.70 to 6.00

Request the reported pIC50 associated with N#Cc1c(N)nc2c(oc3ccccc32)c1-c1ccccc1 [123B] 5.70 to 6.00

Request the reported pIC50 associated with Cc1cccc(-c2nc(-c3c[nH]c(C(=O)N4CCCC4)c3)cs2)c1 6.00 to 6.30

Request the reported pIC50 associated with Fc1ccc(-c2cn(-c3ccc4nnc(C(F)(F)F)n4n3)cn2)cc1 6.00 to 6.30

Request the reported pIC50 associated with Cc1noc(C)c1COc1cccc(C(=O)/N=c2/sccn2C)c1 > 6.70

# evaluate next
Request the reported pIC50 associated with COc1ccc(N2CCN(c3nc(C(F)(F)F)cs3)CC2)cc1 6.00 to 6.30

These measurements were taken from patent US20210220408A1.
